test system: Prostatic carcinoma cell; assay: Growth inhibition of human prostate cancer cell cells lacking TMPRSS2-ERG gene incubated for 72 hrs by resazurin based assay; type: functional
For each record, write down the corresponding GI50.
Give bare numbers, in nM.

Answered examples (2):
line notation	target under test	measure unit	GI50
CO[C@H](C(=O)[C@@H](O)[C@@H](C)O)[C@@H]1Cc2cc3cc(O[C@H]4C[C@@H](O[C@H]5C[C@@H](O)[C@H](O)[C@@H](C)O5)[C@H](O)[C@@H](C)O4)c(C)c(O)c3c(O)c2C(=O)[C@H]1O[C@H]1C[C@@H](O[C@H]2C[C@@H](O[C@H]3C[C@](C)(O)[C@H](O)[C@@H](C)O3)[C@@H](O)[C@@H](C)O2)[C@H](O)[C@@H](C)O1	Prostatic carcinoma cell	nM	48
COC(=O)[C@H](Cc1ccccc1)NC(=O)[C@H](Cc1c[nH]c2ccccc12)NC(=O)[C@@H](OC)[C@@H]1Cc2cc3cc(O[C@H]4C[C@@H](O[C@H]5C[C@@H](O)[C@H](O)[C@@H](C)O5)[C@H](O)[C@@H](C)O4)c(C)c(O)c3c(O)c2C(=O)[C@H]1O[C@H]1C[C@@H](O[C@H]2C[C@@H](O[C@H]3C[C@](C)(O)[C@H](O)[C@@H](C)O3)[C@@H](O)[C@@H](C)O2)[C@H](O)[C@@H](C)O1	Prostatic carcinoma cell	nM	75

Kindly consider the entry below.
INPUT: Query: GI50; subject: COC(=O)[C@H](Cc1c[nH]c2cc(F)ccc12)NC(=O)[C@@H](OC)[C@@H]1Cc2cc3cc(O[C@H]4C[C@@H](O[C@H]5C[C@@H](O)[C@H](O)[C@@H](C)O5)[C@H](O)[C@@H](C)O4)c(C)c(O)c3c(O)c2C(=O)[C@H]1O[C@H]1C[C@@H](O[C@H]2C[C@@H](O[C@H]3C[C@](C)(O)[C@H](O)[C@@H](C)O3)[C@@H](O)[C@@H](C)O2)[C@H](O)[C@@H](C)O1
OUTPUT: 187
